Data origin: the supplement of paper PMC9112550

tested on: Escherichia coli TOP10; assay: shrunken log2 fold change of peptide-encoding DNA abundance (4.5 h post-induction vs induction); higher = less antimicrobial activity (less host growth inhibition); conditions: time post-induction: 4.5 h; library: site-saturation at positions 5, 18, 19, 20
Definition: the class of an entry is the range in lower: < -0.1; middle: ≥ -0.1 and < 0.2; upper: ≥ 0.2 that contains its shrunken log2 fold change.

# example entries with known answers
| chain | cat |
| --- | --- |
| RRIRGRPPRLPRPRPRPATPPRP | upper |
| RRIRARPPRLPRPRPRPGNCPRP | middle |
| RRIRFRPPRLPRPRPRPFCFPRP | lower |
| RRIRRRPPRLPRPRPRPEPCPRP | upper |
| RRIRTRPPRLPRPRPRPDGAPRP | middle |
| RRIRKRPPRLPRPRPRPKCAPRP | upper |
| RRIRTRPPRLPRPRPRPDCVPRP | lower |
| RRIRKRPPRLPRPRPRPMRYPRP | upper |
| RRIRFRPPRLPRPRPRPFAGPRP | middle |
| RRIRYRPPRLPRPRPRPYVCPRP | lower |

Problem: Into which bin does this sequence go? RRIRERPPRLPRPRPRPMAYPRP
Result: middle

Problem: Place this sequence in its band: RRIRIRPPRLPRPRPRPSGVPRP
Result: lower

Problem: Into which bin does this sequence go? RRIRERPPRLPRPRPRPCCLPRP
Result: lower

Problem: Please let me know in which category the item RRIRLRPPRLPRPRPRPWNIPRP belongs.
Result: lower

Problem: Any idea which band RRIRERPPRLPRPRPRPASMPRP is in?
Result: middle

Problem: Entry RRIRDRPPRLPRPRPRPVTRPRP belongs to which category?
Result: upper

Problem: Class (by measured shrunken log2 fold change) for RRIRGRPPRLPRPRPRPSGTPRP
Result: upper

Problem: Lab note: which band did RRIRQRPPRLPRPRPRPSWTPRP land in?
Result: lower

Problem: Class (by measured shrunken log2 fold change) for RRIRLRPPRLPRPRPRPFRPPRP
Result: middle

Problem: Using the reported shrunken log2 fold change, which band applies to RRIRYRPPRLPRPRPRPFIHPRP ?
Result: lower

Problem: Sort into band: RRIRPRPPRLPRPRPRPCCFPRP
Result: lower

Problem: Categorize the following entry: RRIRMRPPRLPRPRPRPAQPPRP
Result: upper

Problem: # bin label for RRIRSRPPRLPRPRPRPGVWPRP
Result: upper

Problem: Assign a bin to RRIRGRPPRLPRPRPRPYDLPRP
Result: lower

Problem: State the class of the sequence shown: RRIRIRPPRLPRPRPRPDQTPRP
Result: middle

Problem: Which class does RRIRKRPPRLPRPRPRPNLAPRP fall in?
Result: upper

Problem: Class for RRIRSRPPRLPRPRPRPMDIPRP ?
Result: middle

###

system: Escherichia coli TOP10; assay: shrunken log2 fold change of peptide-encoding DNA abundance (4.5 h post-induction vs induction); higher = less antimicrobial activity (less host growth inhibition); details: time post-induction: 4.5 h; library: site-saturation at positions 5, 18, 19, 20
Decide using shrunken log2 fold change: a value greater than or equal to -0.1 is Y, a smaller one is N.

Solved entries (count: 7):
| chain | cat |
| --- | --- |
| RRIRHRPPRLPRPRPRPDNWPRP | N |
| RRIRCRPPRLPRPRPRPNIGPRP | N |
| RRIRFRPPRLPRPRPRPRPKPRP | Y |
| RRIRGRPPRLPRPRPRPGSSPRP | Y |
| RRIRDRPPRLPRPRPRPPGDPRP | Y |
| RRIRFRPPRLPRPRPRPTCLPRP | N |
| RRIRSRPPRLPRPRPRPHIEPRP | N |

Problem: Record RRIRVRPPRLPRPRPRPWKHPRP ; criterion: shrunken log2 fold change no lower than -0.1. Met?
Result: Y

###

system: Escherichia coli TOP10; assay: shrunken log2 fold change of peptide-encoding DNA abundance (4.5 h post-induction vs induction); higher = less antimicrobial activity (less host growth inhibition); conditions: time post-induction: 4.5 h; library: site-saturation at positions 5, 18, 19, 20
Binning scheme for shrunken log2 fold change: group 1: < -0.2; group 2: ≥ -0.2 and < 0.04; group 3: ≥ 0.04

Some solved cases for reference:
| chain | cat |
| --- | --- |
| RRIRVRPPRLPRPRPRPYAVPRP | group 1 |
| RRIRDRPPRLPRPRPRPCIFPRP | group 3 |
| RRIRLRPPRLPRPRPRPSPGPRP | group 2 |

Problem: Which shrunken log2 fold change band matches RRIRPRPPRLPRPRPRPETYPRP ?
Result: group 2

Problem: Hi, small favor: classify RRIRYRPPRLPRPRPRPHPNPRP by its shrunken log2 fold change when you get a moment.
Result: group 1

Problem: Assign a category based on measured shrunken log2 fold change for RRIRLRPPRLPRPRPRPWMCPRP and give only the class name.
Result: group 1

Problem: Given RRIRFRPPRLPRPRPRPYPRPRP , name the class its shrunken log2 fold change places it in.
Result: group 1

###

system: Escherichia coli TOP10; assay: shrunken log2 fold change of peptide-encoding DNA abundance (4.5 h post-induction vs induction); higher = less antimicrobial activity (less host growth inhibition); details: time post-induction: 4.5 h; library: site-saturation at positions 5, 18, 19, 20
Rule: shrunken log2 fold change of 0.03 or more gives criterion met; anything lower gives criterion not met.

// known answers, use as guide
| chain | cat |
| --- | --- |
| RRIRYRPPRLPRPRPRPQHFPRP | criterion not met |
| RRIRQRPPRLPRPRPRPMHEPRP | criterion met |
| RRIRDRPPRLPRPRPRPAFKPRP | criterion met |

Problem: Could you tell me if the measured shrunken log2 fold change of RRIRYRPPRLPRPRPRPRFRPRP reaches 0.03 or more?
Result: criterion not met

Problem: Can RRIRSRPPRLPRPRPRPKTKPRP be said to have shrunken log2 fold change at or above 0.03?
Result: criterion not met

Problem: Threshold query (shrunken log2 fold change >= 0.03) on RRIRGRPPRLPRPRPRPIKRPRP
Result: criterion met

Problem: Would you say RRIRMRPPRLPRPRPRPSIYPRP shows shrunken log2 fold change at minimum 0.03?
Result: criterion not met

Problem: shrunken log2 fold change >= 0.03 for RRIRVRPPRLPRPRPRPAYFPRP ?
Result: criterion not met

Problem: Hi team, for RRIRYRPPRLPRPRPRPYKHPRP , is the recorded shrunken log2 fold change at or above 0.03?
Result: criterion not met

Problem: Please check the record RRIRSRPPRLPRPRPRPVEHPRP and state if its shrunken log2 fold change is at or above 0.03.
Result: criterion not met

Problem: Determine whether this sequence has shrunken log2 fold change no lower than 0.03: RRIRMRPPRLPRPRPRPTDTPRP
Result: criterion met

Problem: Check if shrunken log2 fold change >= 0.03 (inclusive). Item: RRIRCRPPRLPRPRPRPEPAPRP
Result: criterion met

Problem: Has RRIRYRPPRLPRPRPRPKLAPRP a recorded shrunken log2 fold change greater than or equal to 0.03?
Result: criterion not met

Problem: Assess whether reported shrunken log2 fold change for RRIRPRPPRLPRPRPRPRFGPRP sits at 0.03 or higher.
Result: criterion met

###

system: Escherichia coli TOP10; experiment: shrunken log2 fold change of peptide-encoding DNA abundance (4.5 h post-induction vs induction); higher = less antimicrobial activity (less host growth inhibition); details: time post-induction: 4.5 h; library: site-saturation at positions 5, 18, 19, 20
Response field class: string, computed from recorded shrunken log2 fold change by ranges LOW: < -0.03; MEDIUM: ≥ -0.03 and < 0.2; HIGH: ≥ 0.2

Worked examples follow.
| chain | cat |
| --- | --- |
| RRIRMRPPRLPRPRPRPFVGPRP | MEDIUM |
| RRIRERPPRLPRPRPRPSVMPRP | LOW |
| RRIRIRPPRLPRPRPRPETPPRP | HIGH |
| RRIRWRPPRLPRPRPRPRDFPRP | LOW |
| RRIRARPPRLPRPRPRPQFSPRP | MEDIUM |
| RRIRSRPPRLPRPRPRPPDWPRP | HIGH |
| RRIRERPPRLPRPRPRPTFYPRP | LOW |
| RRIRFRPPRLPRPRPRPQPQPRP | HIGH |

Alright, here's another sequence for you.
Problem: Hi, small favor: classify RRIRRRPPRLPRPRPRPQIQPRP by its shrunken log2 fold change when you get a moment.
Result: MEDIUM

###

// shrunken log2 fold change lookup, one value per entry
system: Escherichia coli TOP10; assay: shrunken log2 fold change of peptide-encoding DNA abundance (4.5 h post-induction vs induction); higher = less antimicrobial activity (less host growth inhibition); conditions: time post-induction: 4.5 h; library: site-saturation at positions 5, 18, 19, 20;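 note: peptides expressed intracellularly from a pBAD plasmid library in pooled LB shake-flask culture, induced with 0.3% L-arabinose, DNA abundance read by NGS, three biological replicates, DESeq2 with apeglm shrinkage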
# output: bare number, no unit

Here is how some sequences turned out for shrunken log2 fold change.
| chain | observed_value |
| --- | --- |
| RRIRVRPPRLPRPRPRPLHNPRP | -0.143 |
| RRIRTRPPRLPRPRPRPQTFPRP | -0.567 |
| RRIRQRPPRLPRPRPRPIEHPRP | 0.0215 |
| RRIRHRPPRLPRPRPRPYPKPRP | -0.193 |
| RRIRARPPRLPRPRPRPHFEPRP | 0.703 |

Next sequence, shrunken log2 fold change to be filled in.
Problem: Quick check: shrunken log2 fold change of RRIRIRPPRLPRPRPRPEWTPRP ?
Result: -0.0261
